Record set: Ki | Rho-associated protein kinase 1 (Homo sapiens) | literature, multiple sources.

N[C@H](Cc1ccc(Oc2ccnc3[nH]ccc23)cc1)C(=O)NCC1CCCCC1: 3 to 30 nM

Using Rho-associated protein kinase 1 (Homo sapiens) as the test system, report measured Ki of "CC(=O)N1[C@H](C)CN(c2cccc(-c3c[nH]c4ncc(NC(=O)OC(C)C)cc34)n2)C[C@@H]1C" .
500 to 5000 nM

Using Rho-associated protein kinase 1 (Homo sapiens) as the test system, report measured Ki of "CN1CCN(CCCOc2cccc(CC(=O)Nc3nc(-c4c[nH]c5nccc(F)c45)cs3)c2)CC1" .
< 500 nM

Using Rho-associated protein kinase 1 (Homo sapiens) as the test system, report measured Ki of O=C(NC(Cc1ccc(Oc2ccnc3[nH]ccc23)cc1)C(=O)NC1CCCCC1)C1CCNC1 (stereo not shown) .
3 to 30 nM
